Ref: patent US5716993A

Entries with reported pIC50 on cGMP-PDE prepared from porcine aorta (Sus scrofa)
pIC50: −log10 of the molar value.
measuredMetric: pIC50

Worked set:
COc1ccc(CNC(=O)c2cc(C#N)ccc2NC(=O)[C@@H]2CCC(=O)O2)cc1Cl	7.74
O=C(NCc1ccc2c(c1)OCO2)c1cc(OC(F)(F)F)ccc1NC(=O)[C@H]1CC[C@H](C(=O)O)CC1	7.72

a = COc1ccc(CNC(=O)c2cc(C#N)ccc2NC(=O)c2ccncc2)cc1Cl
b = COc1ccc(CNC(=O)c2cc(Cl)ccc2NC(=O)[C@H]2CC[C@H](C(=O)O)CC2)cc1C#N
c = COc1ccc(CNC(=O)c2cc(Br)ccc2NC(=O)[C@H]2CC[C@H](C(=O)O)CC2)cc1Cl
d = COc1ccc(CNC(=O)c2cc(C#N)ccc2NC(=O)[C@H]2CC[C@H](C(=O)O)CC2)cc1Cl
e = COc1ccc(CNC(=O)c2cc(Br)ccc2NC(=O)N2CCC(C(=O)O)CC2)cc1Cl
Order the records by pIC50, with each subsequent value no larger than the one before. Show the ranking through the labels, in the order asked for.
c, d, e, a, b

----------
Entries with reported IC50 on UniProt:A0A287B475
measuredMetric: IC50 (nM)

Worked set:
COc1cc(NC(=O)[C@H]2CC[C@H](C(=O)O)CC2)c(C(=O)NCc2ccc3c(c2)OCO3)cc1Br [Example 129]	36.8
O=C(NCc1ccc2c(c1)OCO2)c1cc(Cl)ccc1NC(=O)N1CCC(C(=O)O)CC1 [Example 38]	6.7
COc1ccc(CNC(=O)c2cc(C#N)ccc2NC(=O)N2CCC(O)CC2)cc1Cl [Example 74]	2.4
O=C(NCc1ccc2c(c1)OCO2)c1cc(Br)ccc1NC(=O)N1CCC(C(=O)O)CC1 [Example 122]	5
COc1ccc(CNC(=O)c2cc(S(=O)(=O)N(C)C)ccc2NC(=O)[C@H]2CC[C@H](C(=O)O)CC2)cc1Cl [Example 117]	11.5

I = O=C(NCc1ccc2c(c1)OCO2)c1cc(Cl)ccc1NC(=O)C1CCCCC1 [Example 19]
II = COc1ccc(CNC(=O)c2cc(C#N)ccc2NC(=O)[C@H]2CC[C@H](O)CC2)cc1Cl [Example 109]
Lab notebook, comparison: I versus II , higher IC50 goes to which? State your choice using its label.
I

----------
Biological target: cGMP-PDE prepared from porcine aorta (Sus scrofa)
measuredMetric: IC50 (nM)

COc1ccc(CNC(=O)c2cc(Cl)ccc2NC(=O)[C@H]2CC[C@H](C(=O)O)CC2)cc1Cl	5.3

I = COc1ccc(CNC(=O)c2cc([N+](=O)[O-])ccc2NC(=O)[C@H]2CC[C@H](C(=O)O)CC2)cc1Cl
II = O=C(NCc1ccc2c(c1)OCO2)c1cc(Cl)ccc1NC(=O)[C@H]1CC[C@H](C(=O)O)CC1
III = O=C(Nc1ccc(Br)cc1C(=O)NCc1ccc2c(c1)OCO2)c1ccncc1
Which order do these items take when sorted by rising IC50? List them. Show the ranking through the labels, in the order asked for.
I, II, III
